Please respond with reported polymerase ribozyme fitness (log ratio) for every item in the list.
B1: TPR t1 (parent)
chain: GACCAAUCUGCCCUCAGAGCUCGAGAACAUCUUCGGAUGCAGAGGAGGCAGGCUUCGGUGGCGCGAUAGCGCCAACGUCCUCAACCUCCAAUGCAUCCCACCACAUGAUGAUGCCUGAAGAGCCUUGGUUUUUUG

Variants of: B1
assay_text: polymerase ribozyme fitness, log enrichment relative to wild type (log ratio); higher = more active; in vitro selection for triplet polymerase activity
One number for each entry.

Dear reader, for each entry below, please note its polymerase ribozyme fitness (log ratio).
1. A2C G63C U130A
2. C72G G135C
3. G48U C73U U109A G110U A119U
4. G48C C73U
5. C73A U81G C88A U112G C115A U125A
6. A46U A90U A105U C115U C124U

Result ::
1. -2.69
2. -1.17
3. -4.88
4. -0.559
5. -5.14
6. -5.04

Ref: the RNAGym collection of RNA variant scans (doi:10.1073/pnas.2313332121)
